conditions: in ethanol, 307.95 K
ENDPOINT: solubility (mole fraction)
Give your answer as a number; write no unit.

Give the measured solubility (mole fraction) of O=P1(c2cc(O)ccc2O)Oc2ccccc2-c2ccccc21 (stereo unspecified) .
0.0027
